Target: T1, TNFR1 (Homo sapiens, UniProt P19438)
T1 chain: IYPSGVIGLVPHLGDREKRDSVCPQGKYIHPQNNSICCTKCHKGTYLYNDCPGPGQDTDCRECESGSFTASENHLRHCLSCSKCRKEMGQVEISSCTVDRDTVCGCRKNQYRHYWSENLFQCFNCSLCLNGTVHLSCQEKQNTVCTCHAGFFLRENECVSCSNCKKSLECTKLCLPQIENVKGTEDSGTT
Assay: yeast display SC50
Overview of recorded apparent Kd (screen) for various binders
property: apparent Kd (screen)

>>> result_value("K88I (designed binder) SMEEEVEKAAKEYEKKKKEAIEKHLEKLKAKDKEAAERFLKELEEAAKEYAKDEAKTMSEEEAKRRAKKYKEKVLLSELSEEEQKEIIEAEEKLVRTILKYVEEAAK")
"0.446 nM"
>>> result_value("K93D (designed binder) SMEEEVEKAAKEYEKKKKEAIEKHLEKLKAKDKEAAERFLKELEEAAKEYAKDEAKTMSEEEAKRRAKKYKEKVLLSELSEEEQKEIKEAEEDLVRTILKYVEEAAK")
"0.446 nM"
>>> result_value("K71S (designed binder) SMEEEVEKAAKEYEKKKKEAIEKHLEKLKAKDKEAAERFLKELEEAAKEYAKDEAKTMSEEEAKRRAKKYSEKVLLSELSEEEQKEIKEAEEKLVRTILKYVEEAAK")
"0.869 nM"
>>> result_value("Y101R (designed binder) SMEEEVEKAAKEYEKKKKEAIEKHLEKLKAKDKEAAERFLKELEEAAKEYAKDEAKTMSEEEAKRRAKKYKEKVLLSELSEEEQKEIKEAEEKLVRTILKRVEEAAK")
"0.446 nM"
>>> result_value("K8N (designed binder) SMEEEVENAAKEYEKKKKEAIEKHLEKLKAKDKEAAERFLKELEEAAKEYAKDEAKTMSEEEAKRRAKKYKEKVLLSELSEEEQKEIKEAEEKLVRTILKYVEEAAK")
"0.718 nM"
>>> result_value("V95K (designed binder) SMEEEVEKAAKEYEKKKKEAIEKHLEKLKAKDKEAAERFLKELEEAAKEYAKDEAKTMSEEEAKRRAKKYKEKVLLSELSEEEQKEIKEAEEKLKRTILKYVEEAAK")
"3.63 nM"
>>> result_value("E12L (designed binder) SMEEEVEKAAKLYEKKKKEAIEKHLEKLKAKDKEAAERFLKELEEAAKEYAKDEAKTMSEEEAKRRAKKYKEKVLLSELSEEEQKEIKEAEEKLVRTILKYVEEAAK")
"0.49 nM"
>>> result_value("K31C (designed binder) SMEEEVEKAAKEYEKKKKEAIEKHLEKLKACDKEAAERFLKELEEAAKEYAKDEAKTMSEEEAKRRAKKYKEKVLLSELSEEEQKEIKEAEEKLVRTILKYVEEAAK")
"1.27 nM"
>>> result_value("E49L (designed binder) SMEEEVEKAAKEYEKKKKEAIEKHLEKLKAKDKEAAERFLKELEEAAKLYAKDEAKTMSEEEAKRRAKKYKEKVLLSELSEEEQKEIKEAEEKLVRTILKYVEEAAK")
"10.4 nM"
>>> result_value("E92Y (designed binder) SMEEEVEKAAKEYEKKKKEAIEKHLEKLKAKDKEAAERFLKELEEAAKEYAKDEAKTMSEEEAKRRAKKYKEKVLLSELSEEEQKEIKEAEYKLVRTILKYVEEAAK")
"13.8 nM"
>>> result_value("E86Y (designed binder) SMEEEVEKAAKEYEKKKKEAIEKHLEKLKAKDKEAAERFLKELEEAAKEYAKDEAKTMSEEEAKRRAKKYKEKVLLSELSEEEQKYIKEAEEKLVRTILKYVEEAAK")
"1.4 nM"
>>> result_value("L94Y (designed binder) SMEEEVEKAAKEYEKKKKEAIEKHLEKLKAKDKEAAERFLKELEEAAKEYAKDEAKTMSEEEAKRRAKKYKEKVLLSELSEEEQKEIKEAEEKYVRTILKYVEEAAK")
"0.446 nM"
>>> result_value("I98L (designed binder) SMEEEVEKAAKEYEKKKKEAIEKHLEKLKAKDKEAAERFLKELEEAAKEYAKDEAKTMSEEEAKRRAKKYKEKVLLSELSEEEQKEIKEAEEKLVRTLLKYVEEAAK")
"13.8 nM"
>>> result_value("K100N (designed binder) SMEEEVEKAAKEYEKKKKEAIEKHLEKLKAKDKEAAERFLKELEEAAKEYAKDEAKTMSEEEAKRRAKKYKEKVLLSELSEEEQKEIKEAEEKLVRTILNYVEEAAK")
"0.956 nM"
>>> result_value("E86R (designed binder) SMEEEVEKAAKEYEKKKKEAIEKHLEKLKAKDKEAAERFLKELEEAAKEYAKDEAKTMSEEEAKRRAKKYKEKVLLSELSEEEQKRIKEAEEKLVRTILKYVEEAAK")
"0.593 nM"
>>> result_value("A47H (designed binder) SMEEEVEKAAKEYEKKKKEAIEKHLEKLKAKDKEAAERFLKELEEAHKEYAKDEAKTMSEEEAKRRAKKYKEKVLLSELSEEEQKEIKEAEEKLVRTILKYVEEAAK")
"0.446 nM"
